The origin of these recorded values is PubChem BioAssay (NCI).

# System: MDA-MB-231 breast
# Method Summary: NCI tumour cell line growth inhibition, 48 h; in the data active = GI50 below about 0.43 µM; inactive = the rest
Entry note: the call must match one of class 1 (active), class 0 (inactive)

Before answering, review these 7 worked examples.
CC(=O)c1ccc(N(/C=C/C(=O)C(F)(F)F)CC(=O)c2ccc(Cl)c(Cl)c2)cc1 ... class 0
Cc1c(Cl)cccc1Nc1ncccc1C(=O)O ... class 0
COc1ccc(CN2CCCC(C(=O)c3ccc(C(F)(F)F)cc3)C2)c(O)c1 (stereo not drawn) ... class 0
O=C1CSC(N2CCN(c3cccc(Cl)c3)CC2)=N1 ... class 0
N#Cc1nc(-c2ccc(F)cc2)oc1S(=O)(=O)N1CCOCC1 ... class 0
CN=C1NC(=O)/C(=C/c2ccc3ncccc3c2)S1 ... class 0
Cc1c(N2C(=O)/C(=C\c3ccccc3O)N=C2c2ccccc2)c(=O)n(-c2ccccc2)n1C ... class 0

Next:
Inquiry: How was COC(=O)[C@@H](C)C[C@H](Cc1ccccc1)NC(=O)c1nc([C@@H](C[C@H](C(C)C)N(C)C(=O)[C@@H](NC(=O)[C@H]2CCCN2C)C(C)C)OC(C)=O)sc1C classified in this test?
Reply text: class 1
